assay: Solubility in water; format: physicochemical; settings: water
Measured Metric: solubility

[
  {
    "Mol": "NC(=O)CSC(c1ccc(F)cc1)c1ccc(F)cc1",
    "Result": "< 1000 µg/mL"
  }
]
